Every entry's value here was drawn from patent US9328099B2.

Measured log10(IC50) by item
- assayed_target: JAK1 (Homo sapiens (Human))
- assay_overview: Jak Biochemical HTRF Assay, JAK1
- particulars: HTRF biochemical assay, GST-tagged catalytic domain; top concentration tested […]; read-out: JAK1 IC50
Remember, log10 of IC50, in nM.

Use the examples below as a reference point.
CC(C)(C)OC(=O)N1CCC(CC#N)(n2cc(C(N)=O)c(Nc3ccc(N4CCOCC4)nc3)n2)CC1 : -0.10
COc1cccnc1N1CCC(CC#N)(n2cc(C(N)=O)c(Nc3ccc(F)cc3)n2)CC1 : 1.52
Cc1cccc(NC(=O)N2CC(CC#N)(n3cc(C(N)=O)c(Nc4ccccc4)n3)C2)c1 : 0.60

Input N#CCC1(n2cc(C(N)=O)c(Nc3ccnc(F)c3)n2)CCN(C(=O)OC2CCOC2)CC1 (stereo not drawn) [Example 30-16] . Output log10(IC50): -0.05

----------
Measured log10(IC50) by item
- assayed_target: JAK2 (Homo sapiens (Human))
- Sequence (O60674 849-1124): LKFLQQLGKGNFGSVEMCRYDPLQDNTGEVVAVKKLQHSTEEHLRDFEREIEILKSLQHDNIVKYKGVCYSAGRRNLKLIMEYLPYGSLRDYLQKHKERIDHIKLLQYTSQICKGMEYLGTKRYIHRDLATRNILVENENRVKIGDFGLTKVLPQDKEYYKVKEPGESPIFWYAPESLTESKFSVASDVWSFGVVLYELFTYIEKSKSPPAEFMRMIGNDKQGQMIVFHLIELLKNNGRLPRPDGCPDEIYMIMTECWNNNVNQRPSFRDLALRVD
- assay_overview: Jak Biochemical HTRF Assay, JAK2
- particulars: HTRF biochemical assay, GST-tagged catalytic domain; top concentration tested […]
Remember, log10 of IC50, in nM.

N#CCC1(n2cc(C(N)=O)c(Nc3ccc(F)cc3)n2)CCN(c2cccc(OCCO)n2)CC1 : 1.67
N#CCC1(n2cc(C(N)=O)c(Nc3ccc(S(=O)(=O)C(F)F)cc3)n2)CCC(Nc2ccccc2)CC1 (stereo not drawn) [Example 40-102] : 0.00
N#CCC1(n2cc(C(N)=O)c(Nc3ccc(F)cc3)n2)CCC(Nc2ccccc2F)CC1 (stereo not drawn) [Example 40-60] : 2.88
CNC(=O)c1ccc(Nc2nn(C3(CC#N)CCN(C(=O)OC(C)(C)C)CC3)cc2C(N)=O)cc1 : 0.30
N#CCC1(n2cc(C(N)=O)c(Nc3ccnc(F)c3)n2)CCN(Cc2cnn3ccccc23)CC1 : 2.70
Cc1cc(Cl)ccc1NC(=O)N1CC(CC#N)(n2cc(C(N)=O)c(Nc3ccccc3)n2)C1 : 2.52

Input N#CC[C@]1(n2cc(C(N)=O)c(Nc3ccnc(F)c3)n2)CC[C@H](NCc2ccc(F)cc2F)CC1 . Output log10(IC50): 2.34

Input N#CCC1(n2cc(C(N)=O)c(Nc3ccnc(F)c3)n2)CCN(Cc2ccon2)CC1 . Output log10(IC50): 1.67

Input N#CCC1(n2cc(C(N)=O)c(Nc3ccnc(F)c3)n2)CCC(NCc2ccccc2)CC1 (stereo not drawn) [Example 41-28] . Output log10(IC50): 2.87

Input N#CCC1(n2cc(C(N)=O)c(Nc3ccc(S(=O)(=O)C(F)F)cc3)n2)CCC(N2CCC(F)(F)CC2)CC1 (stereo not drawn) [Example 40-31] . Output log10(IC50): 0.30

Input CC(C)COC(=O)N1CCC(CC#N)(n2cc(C(N)=O)c(Nc3ccccc3)n2)CC1 . Output log10(IC50): 2.01

Input CC(C)(C)OC(=O)N1CCC(CC#N)(n2cc(C(N)=O)c(Nc3cnc(C#N)nc3)n2)CC1 . Output log10(IC50): 1.58

Input CC(C)(C)OC(=O)N1CCC(CC#N)(n2cc(C(N)=O)c(Nc3cccc(-c4ccccc4O)c3)n2)CC1 . Output log10(IC50): 2.26

Input N#CCC1(n2cc(C(N)=O)c(Nc3ccc(F)cc3)n2)CCC(Nc2cccnc2)CC1 (stereo not drawn) [Example 40-75] . Output log10(IC50): 0.85

Input N#CCC1(n2cc(C(N)=O)c(Nc3ccc(S(=O)(=O)C(F)F)cc3)n2)CCC(N2CCC(O)CC2)CC1 (stereo not drawn) [Example 40-67] . Output log10(IC50): 2.89

----------
Measured pIC50 by item
- assayed_target: UniProtKB P23458
- assay_overview: Jak Biochemical HTRF Assay, JAK1
- particulars: read-out: JAK1 IC50
Friendly reminder that pIC50 comes from taking -log10 of the concentration in mol/L.

N#CCC1(n2cc(C(N)=O)c(Nc3ccc(S(=O)(=O)C(F)F)cc3)n2)CCC(NC2CCCCC2)CC1 (stereo not drawn) : 6.38
N#CC[C@]1(n2cc(C(N)=O)c(Nc3ccccc3)n2)CC[C@H](C(=O)NCC(F)(F)F)CC1 : 6.42

Input N#CCC1(n2cc(C(N)=O)c(Nc3ccc(S(=O)(=O)C(F)F)cc3)n2)CCC(Nc2ccccc2O)CC1 (stereo not drawn) . Output pIC50: 9.40

Input N#CCC1(n2cc(C(N)=O)c(Nc3ccc(S(=O)(=O)C(F)F)cc3)n2)CCC(Nc2cccnc2)CC1 (stereo not drawn) . Output pIC50: 9.52

Input C[Si](C)(C)COC(=O)N1CCC(CC#N)(n2cc(C(N)=O)c(Nc3ccc(F)cc3)n2)CC1 . Output pIC50: 7.68

Input N#CCC1(n2cc(C(N)=O)c(Nc3ccc(S(=O)(=O)C(F)F)cc3)n2)CCC(Nc2cccc(O)c2)CC1 (stereo not drawn) . Output pIC50: 10.00

----------
- assayed_target: JAK1 (Homo sapiens (Human), UniProt P23458)
- Sequence (P23458 875-1153): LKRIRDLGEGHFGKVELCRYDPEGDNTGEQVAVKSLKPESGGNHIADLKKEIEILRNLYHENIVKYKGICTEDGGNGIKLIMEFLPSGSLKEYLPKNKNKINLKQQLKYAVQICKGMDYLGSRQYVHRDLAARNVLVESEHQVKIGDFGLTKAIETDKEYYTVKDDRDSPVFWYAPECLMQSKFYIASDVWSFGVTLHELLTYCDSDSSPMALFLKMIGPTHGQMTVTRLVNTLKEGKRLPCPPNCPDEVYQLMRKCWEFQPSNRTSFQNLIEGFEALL
- assay_overview: Jak Biochemical HTRF Assay, JAK1
- particulars: HTRF biochemical assay, GST-tagged catalytic domain; top concentration tested […]; read-out: JAK1 IC50
measured_property: IC50 (nM)
Number in nM, nothing else.

Use the examples below as a reference point.
N#CCC1(n2cc(C(N)=O)c(Nc3ccccc3)n2)CCN(C(=O)c2ccc(N3CCOCC3)cc2)CC1 : 61
N#CCC1(n2cc(C(N)=O)c(Nc3ccc(F)cc3)n2)CCC(Nc2ccccc2F)CC1 (stereo not shown) [Example 40-60] : 45

Input N#CCC1(n2cc(C(N)=O)c(Nc3ccc(F)cc3)n2)CCN(C(=O)OCC(F)(F)F)CC1 . Output IC50: 0.3

Input N#CCC1(n2cc(C(N)=O)c(Nc3ccnc(F)c3)n2)CCC(NCc2ccccc2F)CC1 (stereo not shown) [Example 41-21] . Output IC50: 11

Input N#CCC1(n2cc(C(N)=O)c(Nc3ccccc3)n2)CN(C(=O)Nc2ccc(C#N)cc2)C1 . Output IC50: 0.9

Input N#CCC1(n2cc(C(N)=O)c(Nc3ccccc3)n2)CCN(C(=O)c2cccc3ccccc23)CC1 . Output IC50: 28

Input CN1CCN(c2ccc(C(=O)N3CCC(CC#N)(n4cc(C(N)=O)c(Nc5ccccc5)n4)CC3)cc2)CC1 . Output IC50: 60

----------
- assayed_target: JAK1 (Homo sapiens (Human), UniProt P23458)
- assay_overview: Jak Biochemical HTRF Assay, JAK1
- particulars: HTRF biochemical assay, GST-tagged catalytic domain; top concentration tested […]; read-out: JAK1 IC50
- Description: Jak Biochemical HTRF Assay Protocol Subsequent reagent additions employed an Agilent Bravo.
measured_property: IC50 (nM)
Number in nM, nothing else.

Use the examples below as a reference point.
N#CCC1(n2cc(C(N)=O)c(Nc3ccc(Cl)cc3)n2)CCC(N2CC(F)C2)CC1 (stereo not shown) [Example 39-1] : 0.09
N#CCC1(n2cc(C(N)=O)c(Nc3ccc(S(=O)(=O)C(F)F)cc3)n2)CCC(NCC(F)F)CC1 (stereo not shown) [Example 40-99] : 506
Cc1cc(Nc2nn(C3(CC#N)CCN(C(=O)OC(C)(C)C)CC3)cc2C(N)=O)nc(C)n1 [Example 13-10] : 6
COc1ccc(N2CCC(CC#N)(n3cc(C(N)=O)c(Nc4ccc(F)cc4)n3)CC2)cn1 [Example 3-53] : 0.4
Cc1ccc(Cl)cc1NC(=O)N1CC(CC#N)(n2cc(C(N)=O)c(Nc3ccccc3)n2)C1 [Example 38-17] : 11
N#CCC1(n2cc(C(N)=O)c(Nc3ccnc(F)c3)n2)CCN(Cc2nc3ccccc3[nH]2)CC1 [Example 22-41] : 18

Input CC(C)(C)OC(=O)N1CCC(CC#N)(n2cc(C(N)=O)c(Nc3cc(F)ccn3)n2)CC1 [Example 13-5] . Output IC50: 15

Input N#CCC1(n2cc(C(N)=O)c(Nc3ccc(F)cc3)n2)CCC(Nc2ccccc2F)CC1 (stereo not shown) [Example 40-58] . Output IC50: 0.2

Input COc1cc(F)cc(N2CCC(CC#N)(n3cc(C(N)=O)c(Nc4ccc(F)cc4)n3)CC2)c1 [Example 3-12] . Output IC50: 2

Input N#CCC1(n2cc(C(N)=O)c(Nc3ccnc(F)c3)n2)CCN(Cc2cccc(O)c2)CC1 [Example 22-70] . Output IC50: 0.04

Input CS(=O)(=O)c1ccc(Nc2nn(C3(CC#N)CN(C(=O)OC4CCOCC4)C3)cc2C(N)=O)cc1 [Example 30-76] . Output IC50: 74

Input CS(=O)(=O)N1CCC(CC#N)(n2cc(C(N)=O)c(Nc3ccccc3)n2)CC1 [Example 37-2] . Output IC50: 0.4

Input CN1CCN(CCOC(=O)N2CC(CC#N)(n3cc(C(N)=O)c(Nc4ccccc4)n3)C2)CC1 [Example 30-72] . Output IC50: 72

Input N#CCC1(n2cc(C(N)=O)c(Nc3ccccc3)n2)CN(S(=O)(=O)C(F)(F)F)C1 [Example 37-18] . Output IC50: 159

Input N#CCC1(n2cc(C(N)=O)c(Nc3ccnc(F)c3)n2)CCC(NCC2CCCCC2)CC1 (stereo not shown) [Example 41-8] . Output IC50: 0.8

Input N#CCC1(n2cc(C(N)=O)c(Nc3ccc(S(=O)(=O)C(F)F)cc3)n2)CCC(NC2CCOCC2)CC1 (stereo not shown) [Example 40-66] . Output IC50: 344
